Items are presented alongside their recorded solubility thermodynamic.
measurement description: Equilibrium solubility of compound at pH 1 incubated for 24 to 48 hrs by HPLC analysis
Type: physicochemical
test parameters: buffer, time 24-48 hrs
Output spec: scalar in µg/mL, unitless text.

INSERT INTO results (compound_structure, uom, reported_result) VALUES
  ('COC(=O)N[C@H](C(=O)N1CCC[C@H]1c1nc2cc(F)c([C@H]3CC[C@H](c4cc5nc([C@@H]6CCCN6C(=O)[C@@H](NC(=O)OC)[C@@H](C)OC)n(COC(=O)[C@@H](NC(=O)COP(=O)(O)O)C(C)C)c5cc4F)N3c3cc(F)c(N4CCC(c5ccc(F)cc5)CC4)c(F)c3)cc2[nH]1)[C@@H](C)OC', 'µg/mL', 186);

Continue with the next compound.
The reported solubility thermodynamic of the compound COC(=O)N[C@H](C(=O)N1CCC[C@H]1c1nc2cc(F)c([C@H]3CC[C@H](c4cc5c(cc4F)nc([C@@H]4CCCN4C(=O)[C@@H](NC(=O)OC)[C@@H](C)OC)n5COC(=O)CCCOP(=O)(O)O)N3c3cc(F)c(N4CCC(c5ccc(F)cc5)CC4)c(F)c3)cc2[nH]1)[C@@H](C)OC was 609

----------
Items are presented alongside their recorded solubility thermodynamic.
measurement description: Equilibrium solubility of compound at pH 7.4 incubated for 24 to 48 hrs by HPLC analysis
Format: physicochemical
test parameters: buffer, time 24-48 hrs

Illustrative cases are given below, each with its answer.
INSERT INTO assay_data (compound_structure, parameter, reported_result) VALUES
  ('COC(=O)N[C@H](C(=O)N1CCC[C@H]1c1nc2cc([C@H]3CC[C@H](c4cc5c(cc4F)nc([C@@H]4CCCN4C(=O)[C@@H](NC(=O)OC)[C@@H](C)OC)n5COP(=O)(O)O)N3c3cc(F)c(N4CCC(c5ccc(F)cc5)CC4)c(F)c3)c(F)cc2n1COP(=O)(O)O)[C@@H](C)OC', 'solubility thermodynamic', '> 1000 µg/mL'),
  ('COC(=O)N[C@H](C(=O)N1CCC[C@H]1c1nc2cc(F)c([C@H]3CC[C@H](c4cc5c(cc4F)nc([C@@H]4CCCN4C(=O)[C@@H](NC(=O)OC)[C@@H](C)OC)n5COC(=O)N(C)c4ncccc4COP(=O)(O)O)N3c3cc(F)c(N4CCC(c5ccc(F)cc5)CC4)c(F)c3)cc2[nH]1)[C@@H](C)OC', 'solubility thermodynamic', '> 1000 µg/mL'),
  ('COC(=O)N[C@H](C(=O)N1CCC[C@H]1c1nc2cc(F)c([C@H]3CC[C@H](c4cc5c(cc4F)nc([C@@H]4CCCN4C(=O)[C@@H](NC(=O)OC)[C@@H](C)OC)n5COC(=O)c4cccc(OP(=O)(O)O)c4)N3c3cc(F)c(N4CCC(c5ccc(F)cc5)CC4)c(F)c3)cc2[nH]1)[C@@H](C)OC', 'solubility thermodynamic', '> 1000 µg/mL'),
  ('COC(=O)N[C@H](C(=O)N1CCC[C@H]1c1nc2cc(F)c([C@H]3CC[C@H](c4cc5nc([C@@H]6CCCN6C(=O)[C@@H](NC(=O)OC)[C@@H](C)OC)n(COC(=O)N(C)c6ncccc6COP(=O)(O)O)c5cc4F)N3c3cc(F)c(N4CCC(c5ccc(F)cc5)CC4)c(F)c3)cc2[nH]1)[C@@H](C)OC', 'solubility thermodynamic', '> 1000 µg/mL'),
  ('COC(=O)N[C@H](C(=O)N1CCC[C@H]1c1nc2cc(F)c([C@H]3CC[C@H](c4cc5c(cc4F)nc([C@@H]4CCCN4C(=O)[C@@H](NC(=O)OC)[C@@H](C)OC)n5COC(=O)c4ccccc4COP(=O)(O)O)N3c3cc(F)c(N4CCC(c5ccc(F)cc5)CC4)c(F)c3)cc2[nH]1)[C@@H](C)OC', 'solubility thermodynamic', '92 µg/mL');

Value of measured solubility thermodynamic for the entry COC(=O)N[C@H](C(=O)N1CCC[C@H]1c1nc2cc(F)c([C@H]3CC[C@H](c4cc5nc([C@@H]6CCCN6C(=O)[C@@H](NC(=O)OC)[C@@H](C)OC)n(COC(=O)CCCOP(=O)(O)O)c5cc4F)N3c3cc(F)c(N4CCC(c5ccc(F)cc5)CC4)c(F)c3)cc2[nH]1)[C@@H](C)OC : 49 µg/mL

For this molecule ( COC(=O)N[C@H](C(=O)N1CCC[C@H]1c1nc2cc(F)c([C@H]3CC[C@H](c4cc5c(cc4F)nc([C@@H]4CCCN4C(=O)[C@@H](NC(=O)OC)[C@@H](C)OC)n5COP(=O)(O)O)N3c3cc(F)c(N4CCC(c5ccc(F)cc5)CC4)c(F)c3)cc2[nH]1)[C@@H](C)OC ), measured solubility thermodynamic is > 4000 µg/mL

----------
measurement description: Equilibrium solubility of compound at pH 7.4 incubated for 24 to 48 hrs by HPLC analysis
Format: physicochemical
test parameters: buffer, time 24-48 hrs
parameter: solubility thermodynamic (µg/mL)
Report the value in µg/mL with no unit label.

INSERT INTO assay_data (compound_structure, parameter, uom, reported_result) VALUES
  ('COC(=O)N[C@H](C(=O)N1CCC[C@H]1c1nc2cc(F)c([C@H]3CC[C@H](c4cc5nc([C@@H]6CCCN6C(=O)[C@@H](NC(=O)OC)[C@@H](C)OC)n(COC(=O)CC(C)(C)c6c(C)cc(C)cc6OP(=O)(O)O)c5cc4F)N3c3cc(F)c(N4CCC(c5ccc(F)cc5)CC4)c(F)c3)cc2[nH]1)[C@@H](C)OC', 'solubility thermodynamic', 'µg/mL', 0.5),
  ('COC(=O)N[C@H](C(=O)N1CCC[C@H]1c1nc2cc(F)c([C@H]3CC[C@H](c4cc5nc([C@@H]6CCCN6C(=O)[C@@H](NC(=O)OC)[C@@H](C)OC)n(COC(=O)c6cccc(OP(=O)(O)O)c6)c5cc4F)N3c3cc(F)c(N4CCC(c5ccc(F)cc5)CC4)c(F)c3)cc2[nH]1)[C@@H](C)OC', 'solubility thermodynamic', 'µg/mL', 827);

Next item in the queue.
Lookup result for COC(=O)N[C@H](C(=O)N1CCC[C@H]1c1nc2cc([C@H]3CC[C@H](c4cc5nc([C@@H]6CCCN6C(=O)[C@@H](NC(=O)OC)[C@@H](C)OC)n(COP(=O)(O)O)c5cc4F)N3c3cc(F)c(N4CCC(c5ccc(F)cc5)CC4)c(F)c3)c(F)cc2n1COP(=O)(O)O)[C@@H](C)OC ; measured solubility thermodynamic: 123

----------
measurement description: Cmax in CD1 mouse assessed as pibrentasvir1 level at 3 mg/kg, po measured up to 24 hrs
Assay type: ADME, organism-based
Design: route oral, dose 3 mg/kg, time <=24
test parameters: in vivo
Entries and their measured Cmax follow.
Give the number; ng/mL is assumed, so skip it.

INSERT INTO results (compound_structure, reported_result) VALUES
  ('COC(=O)N[C@H](C(=O)N1CCC[C@H]1c1nc2cc(F)c([C@H]3CC[C@H](c4cc5nc([C@@H]6CCCN6C(=O)[C@@H](NC(=O)OC)[C@@H](C)OC)n(COC(=O)[C@@H](N)C(C)C)c5cc4F)N3c3cc(F)c(N4CCC(c5ccc(F)cc5)CC4)c(F)c3)cc2[nH]1)[C@@H](C)OC', 129);

The recorded Cmax for entry COC(=O)N[C@H](C(=O)N1CCC[C@H]1c1nc2cc(F)c([C@H]3CC[C@H](c4cc5c(cc4F)nc([C@@H]4CCCN4C(=O)[C@@H](NC(=O)OC)[C@@H](C)OC)n5COP(=O)(O)O)N3c3cc(F)c(N4CCC(c5ccc(F)cc5)CC4)c(F)c3)cc2[nH]1)[C@@H](C)OC equals 17

----------
measurement description: Stability of compound at pH 7.4 assessed as prodrug remaining level at 125 ug/ml incubated for 24 hrs by HPLC analysis
Format: physicochemical
test parameters: buffer, pH 7.4, 24 h, at 125 µg/mL
Measured Stabilty values are reported for all entries that follow.
Numbers only here, please. The scale is %.

Here's what some known entries look like.
INSERT INTO results (compound_structure, uom, reported_result) VALUES
  ('COC(=O)N[C@H](C(=O)N1CCC[C@H]1c1nc2cc(F)c([C@H]3CC[C@H](c4cc5nc([C@@H]6CCCN6C(=O)[C@@H](NC(=O)OC)[C@@H](C)OC)n(COC(=O)CCCOP(=O)(O)O)c5cc4F)N3c3cc(F)c(N4CCC(c5ccc(F)cc5)CC4)c(F)c3)cc2[nH]1)[C@@H](C)OC', '%', 76),
  ('COC(=O)N[C@H](C(=O)N1CCC[C@H]1c1nc2cc(F)c([C@H]3CC[C@H](c4cc5nc([C@@H]6CCCN6C(=O)[C@@H](NC(=O)OC)[C@@H](C)OC)n(COP(=O)(O)O)c5cc4F)N3c3cc(F)c(N4CCC(c5ccc(F)cc5)CC4)c(F)c3)cc2[nH]1)[C@@H](C)OC', '%', 100),
  ('COC(=O)N[C@H](C(=O)N1CCC[C@H]1c1nc2cc(F)c([C@H]3CC[C@H](c4cc5nc([C@@H]6CCCN6C(=O)[C@@H](NC(=O)OC)[C@@H](C)OC)n(COC(=O)[C@@H](NC(=O)OCOP(=O)(O)O)C(C)C)c5cc4F)N3c3cc(F)c(N4CCC(c5ccc(F)cc5)CC4)c(F)c3)cc2[nH]1)[C@@H](C)OC', '%', 38),
  ('COC(=O)N[C@H](C(=O)N1CCC[C@H]1c1nc2cc(F)c([C@H]3CC[C@H](c4cc5c(cc4F)nc([C@@H]4CCCN4C(=O)[C@@H](NC(=O)OC)[C@@H](C)OC)n5COC(=O)[C@@H](NC(=O)OCOP(=O)(O)O)C(C)C)N3c3cc(F)c(N4CCC(c5ccc(F)cc5)CC4)c(F)c3)cc2[nH]1)[C@@H](C)OC', '%', 28),
  ('COC(=O)N[C@H](C(=O)N1CCC[C@H]1c1nc2cc(F)c([C@H]3CC[C@H](c4cc5c(cc4F)nc([C@@H]4CCCN4C(=O)[C@@H](NC(=O)OC)[C@@H](C)OC)n5COC(=O)c4ccccc4COP(=O)(O)O)N3c3cc(F)c(N4CCC(c5ccc(F)cc5)CC4)c(F)c3)cc2[nH]1)[C@@H](C)OC', '%', 84);

Here is another compound to look at.
Stabilty reported for this compound COC(=O)N[C@H](C(=O)N1CCC[C@H]1c1nc2cc(F)c([C@H]3CC[C@H](c4cc5c(cc4F)nc([C@@H]4CCCN4C(=O)[C@@H](NC(=O)OC)[C@@H](C)OC)n5COC(=O)c4cccc(OP(=O)(O)O)c4)N3c3cc(F)c(N4CCC(c5ccc(F)cc5)CC4)c(F)c3)cc2[nH]1)[C@@H](C)OC : 100
